// values below are reported AC50
# assayed-system: Delta-type opioid receptor (Homo sapiens); also: assay procedure not described here
# Sequence (P41143 whole entry): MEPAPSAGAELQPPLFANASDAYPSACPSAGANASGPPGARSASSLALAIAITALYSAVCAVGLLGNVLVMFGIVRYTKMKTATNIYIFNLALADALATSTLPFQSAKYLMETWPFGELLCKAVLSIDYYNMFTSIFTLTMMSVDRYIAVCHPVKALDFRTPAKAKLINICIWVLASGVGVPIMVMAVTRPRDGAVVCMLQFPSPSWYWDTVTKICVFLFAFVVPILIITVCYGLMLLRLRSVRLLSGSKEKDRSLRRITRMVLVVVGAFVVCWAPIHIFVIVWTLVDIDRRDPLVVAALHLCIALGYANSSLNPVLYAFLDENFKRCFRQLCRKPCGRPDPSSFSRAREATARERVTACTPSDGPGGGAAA
readout: AC50

>  <compound>
CCCC(CCC)C(N)=O [VALPROMIDE]

>  <observed-result>
> 30 µM

$$$$
>  <compound>
CC(=O)[C@@]1(O)CC[C@H]2[C@@H]3C=C(Cl)C4=CC(=O)[C@@H]5C[C@@H]5[C@]4(C)[C@H]3CC[C@@]21C

>  <observed-result>
> 30 µM

$$$$
>  <compound>
CCOC(=O)c1cncn1[C@H](C)c1ccccc1 [ETOMIDATE]

>  <observed-result>
> 30 µM

$$$$
>  <compound>
CC(CCc1ccc(O)cc1)NCCc1ccc(O)c(O)c1 (stereo not drawn)

>  <observed-result>
> 30 µM

$$$$
>  <compound>
CC[C@@H]([C@H](C)O)n1ncn(-c2ccc(N3CCN(c4ccc(OC[C@@H]5CO[C@@](Cn6cncn6)(c6ccc(F)cc6F)C5)cc4)CC3)cc2)c1=O

>  <observed-result>
> 30 µM

$$$$
>  <compound>
CC(C)Cc1ccc(C(C)C(=O)O)cc1 (stereo not drawn)

>  <observed-result>
> 30 µM

$$$$
>  <compound>
CCCC(CCC)C(=O)O

>  <observed-result>
> 30 µM

$$$$
>  <compound>
CO[C@H]1/C=C/O[C@@]2(C)Oc3c(C)c(O)c4c(O)c(c(/C=N/N5CCN(C)CC5)c(O)c4c3C2=O)NC(=O)/C(C)=C\C=C\[C@H](C)[C@H](O)[C@@H](C)[C@@H](O)[C@@H](C)[C@H](OC(C)=O)[C@@H]1C

>  <observed-result>
17 µM

$$$$
